Test system: wheat leaf rust, Puccinia recondita
Assay: Foliar systemic activity on leaf rust
Assay type: in vivo
Conditions: 1/12 lb./100 gal.
// label = 1.0 if % Rust Control, New growth is not less than 80%, otherwise 0.0

>>> qualitative_label("CCCCn1cnnc1SCCOCC")
0.0
>>> qualitative_label("CCCCn1cnnc1Sc1ccc([N+](=O)[O-])cc1[N+](=O)[O-]")
0.0
>>> qualitative_label("CCCCn1cnnc1SCC(N)=O")
0.0
>>> qualitative_label("c1ccc(Cn2cnnc2)cc1")
0.0
>>> qualitative_label("CCCCn1cnnc1")
1.0
>>> qualitative_label("CCCCn1cnnc1SC(=O)c1ccc(OC)cc1")
0.0

###

System: wheat leaf rust, Puccinia recondita
Experiment: Foliar systemic activity on leaf rust
Type: in vivo
Conditions: 1/6 lb./100 gal.
Below, each entry is listed alongside its reported % Rust Control, New growth.
property.label: % Rust Control, New growth (%)

>>> quantitative_result("CCCCn1cnnc1Sc1ccc([N+](=O)[O-])cc1[N+](=O)[O-]")
69
>>> quantitative_result("CCCCn1c(S)nnc1C(=O)O [Example 94]")
73
>>> quantitative_result("CCCCn1c(S)nnc1C(=O)OCC")
75
>>> quantitative_result("CCCCn1c(SC(=O)NC)nnc1C(=O)O [Example 99]")
69
>>> quantitative_result("CCCCCCn1cnnc1S")
48
>>> quantitative_result("N#CCCn1ncn(-c2ccccc2)c1=S")
27
>>> quantitative_result("CCCCn1cnnc1SCC(N)=O")
59
>>> quantitative_result("CCCCn1c(S)nnc1C(=O)O [Example 95]")
75

###

Test system: wheat leaf rust, Puccinia recondita
Experiment: Foliar systemic activity on leaf rust
Assay type: in vivo
Conditions: 1/12 lb./100 gal.
Lab note: class by % Rust Control, New growth, see range A (below 50%), range B (50% to below 60%), range C (60% or more)

>>> qualitative_label("CCCCn1c(S)nnc1C(=O)O [Example 95]")
"range C"
>>> qualitative_label("CCCCn1c(SC(=O)NC)nnc1C(=O)O [Example 100]")
"range B"
>>> qualitative_label("N#CCCn1ncn(-c2ccccc2)c1=S [Example 126]")
"range A"
>>> qualitative_label("Sc1nncn1Cc1ccccc1 [Example 84, 3-mercapto-4-benzyl-1,2,4-triazole]")
"range A"
>>> qualitative_label("CCCCn1cnnc1S [Example 76, 3-mercapto-4-n-butyl-1,2,4-triazole]")
"range C"
>>> qualitative_label("CCCCCCn1cnnc1S [Example 79, 3-mercapto-4-n-hexyl-1,2,4-triazole]")
"range A"
>>> qualitative_label("CCCCn1c(S)nnc1C(=O)OCC [Example 97]")
"range C"
>>> qualitative_label("CCCCn1cnnc1SC(=O)NC [Example 114]")
"range C"
>>> qualitative_label("CCCCCn1cnnc1S [Example 78, 3-mercapto-4-n-pentyl-1,2,4-triazole]")
"range B"
>>> qualitative_label("CCCCn1c(SC(=O)NC)nnc1C(=O)O [Example 99]")
"range B"

###

Tested on: wheat leaf rust, Puccinia recondita
Assay: Foliar systemic activity on leaf rust
Type: in vivo
Conditions: 1/6 lb./100 gal.
property.label: % Rust Control, New growth (%)

>>> quantitative_result("CCCCn1cnnc1SC(=O)NC")
79
>>> quantitative_result("CCCCn1cnnc1S")
77
>>> quantitative_result("CCCCn1cnnc1")
98
>>> quantitative_result("CCCCn1cnnc1SC(=O)c1ccc(OC)cc1")
79
>>> quantitative_result("CC1=C(C(=O)Nc2ccccc2)S(=O)(=O)CCO1 [Plantvax, reference compound]")
32
>>> quantitative_result("CCCCCn1cnnc1S")
79
>>> quantitative_result("c1ccc(Cn2cnnc2)cc1")
54
>>> quantitative_result("CCCCn1cnnc1SCCOCC")
23
>>> quantitative_result("CCCCn1c(SC(=O)NC)nnc1C(=O)O [Example 100]")
63
>>> quantitative_result("Sc1nncn1Cc1ccccc1")
34

###

Tested on: wheat leaf rust, Puccinia recondita
Assay: Foliar systemic activity on leaf rust
Format: in vivo
Settings: 1/12 lb./100 gal.
% Rust Control, Sprayed Leaf strictly less than 60% = TRUE. Otherwise FALSE.

>>> qualitative_label("c1ccc(Cn2cnnc2)cc1")
"TRUE"
>>> qualitative_label("CCCCn1c(S)nnc1C(=O)O [Example 94]")
"FALSE"
>>> qualitative_label("CCCCn1c(SC(=O)NC)nnc1C(=O)O [Example 99]")
"FALSE"
>>> qualitative_label("CCCCn1cnnc1SC(=O)NC")
"FALSE"
>>> qualitative_label("CCCCn1cnnc1SCC(N)=O")
"TRUE"
>>> qualitative_label("CCCCn1c(S)nnc1C(=O)OCC")
"FALSE"
>>> qualitative_label("CCCCn1cnnc1Sc1ccc([N+](=O)[O-])cc1[N+](=O)[O-]")
"FALSE"
>>> qualitative_label("N#CCCn1ncn(-c2ccccc2)c1=S")
"TRUE"
>>> qualitative_label("CCCCn1cnnc1")
"FALSE"
>>> qualitative_label("CCCCn1cnnc1SC(=O)c1ccc(OC)cc1")
"FALSE"
>>> qualitative_label("Sc1nncn1Cc1ccccc1")
"TRUE"
>>> qualitative_label("CCCCn1cnnc1S")
"FALSE"
>>> qualitative_label("CCCCCCn1cnnc1S")
"FALSE"
>>> qualitative_label("CCCCCn1cnnc1S")
"FALSE"
>>> qualitative_label("CC1=C(C(=O)Nc2ccccc2)S(=O)(=O)CCO1 [Plantvax, reference compound]")
"TRUE"
>>> qualitative_label("CCCCn1c(SC(=O)NC)nnc1C(=O)O [Example 100]")
"TRUE"
>>> qualitative_label("CCCCn1c(S)nnc1C(=O)O [Example 95]")
"TRUE"
>>> qualitative_label("CCCCn1cnnc1SCCOCC")
"TRUE"
